Every entry's value here was drawn from patent US20250302815A1.

- system.name: PTPN2 (HiBIT-PTPN2 in 293T.109 cells) (Homo sapiens, UniProt P17706)
- Construct: expressed in transfected cells; host or cells: 293T.109 (293T WT from ATCC)
- Sequence (P17706 1-415): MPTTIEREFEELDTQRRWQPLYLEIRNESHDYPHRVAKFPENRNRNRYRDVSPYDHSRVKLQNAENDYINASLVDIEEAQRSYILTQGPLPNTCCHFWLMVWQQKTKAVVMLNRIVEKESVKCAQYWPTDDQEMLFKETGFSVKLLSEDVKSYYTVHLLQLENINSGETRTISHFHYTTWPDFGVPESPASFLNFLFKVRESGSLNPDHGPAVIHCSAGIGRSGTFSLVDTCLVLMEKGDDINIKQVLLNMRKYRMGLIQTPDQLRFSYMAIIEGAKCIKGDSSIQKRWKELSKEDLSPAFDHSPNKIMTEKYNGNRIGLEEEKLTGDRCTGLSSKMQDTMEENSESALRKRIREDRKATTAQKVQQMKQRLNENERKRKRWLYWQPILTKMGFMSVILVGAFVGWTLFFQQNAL
- assay.notes: HiBiT Degradation 293T.109 PTPN2 (Nano-Glo HiBiT Lytic Assay)
- Assay type: cell-based
- run.parameters: 24.0 hours
measured.quantity: DC50

# compound, measured.quantity, result
rows = [
    ("Cn1c(=O)n(C2CCC(=O)NC2=O)c2ccc(CCC(=O)Nc3cccc(CS(=O)(=O)N4CCC(Nc5cccc(-c6sc(C(=O)O)c(OCC(=O)O)c6Cl)c5)CC4)c3)cc21 (stereo not drawn)", "DC50", "200 to 1000 nM"),
    ("Cn1c(=O)n(C2CCC(=O)NC2=O)c2ccc(N3CCC(OC(=O)Nc4cccc(CS(=O)(=O)N5CC[C@H](Nc6cccc(-c7sc(C(=O)O)c(OCC(=O)O)c7Cl)c6)CC5(C)C)c4)CC3)cc21 (stereo partly drawn)", "DC50", "50 to 200 nM"),
    ("CC1(C)C[C@@H](Nc2cccc(-c3sc(C(=O)O)c(OCC(=O)O)c3Cl)c2F)CCN1S(=O)(=O)Cc1ccc(F)c(NC(=O)C2CN(C(=O)CNc3cccc4c3CN([C@@H]3CCC(=O)NC3=O)C4=O)C2)c1 (single isomer, unassigned) [Example 148a]", "DC50", "< 50 nM"),
    ("CC1(C)C[C@@H](Nc2cccc(-c3sc(C(=O)O)c(OCC(=O)O)c3Cl)c2)CCN1S(=O)(=O)Cc1cccc(NC(=O)[C@H]2[C@@H]3CN(C(=O)CNc4cccc5c4CN(C4CCC(=O)NC4=O)C5=O)C[C@@H]32)c1 (stereo partly drawn)", "DC50", "50 to 200 nM"),
    ("Cn1c(=O)n(C2CCC(=O)NC2=O)c2ccc(N3CCC(CCNCCNc4cccc(CS(=O)(=O)N5CC[C@H](Nc6cccc(-c7sc(C(=O)O)c(OCC(=O)O)c7Cl)c6)CC5(C)C)c4)CC3)cc21 (stereo partly drawn)", "DC50", "< 50 nM"),
]

# input Sample CC1(C)C[C@@H](Nc2cccc(-c3sc(C(=O)O)c(OCC(=O)O)c3Cl)c2)CCN1S(=O)(=O)Cc1cccc(NC(=O)NCCCc2cc3c4c(cccc4c2)N(C2CCC(=O)NC2=O)C3=O)c1 (stereo partly drawn) — what was its DC50?
# output 50 to 200 nM

# input Sample CC1(C)C[C@@H](Nc2cccc(-c3sc(C(=O)O)c(OCC(=O)O)c3Cl)c2)CCN1S(=O)(=O)Cc1cccc(NC(=O)N2CCC(c3ccc4c5c(cccc35)C(=O)N4[C@@H]3CCC(=O)NC3=O)CC2)c1 (single isomer, unassigned) [Example 187a] — what was its DC50?
# output < 50 nM

# input Sample C[C@@H]1CN(C(=O)Nc2cccc(CS(=O)(=O)N3CC[C@H](Nc4cccc(-c5sc(C(=O)O)c(OCC(=O)O)c5Cl)c4)CC3(C)C)c2)CCN1c1ccc2c(c1)n(C)c(=O)n2C1CCC(=O)NC1=O (stereo partly drawn) — what was its DC50?
# output 50 to 200 nM
